binding normalized to PSGL-1 listing for selected binders.
molecular target: T1, SulfoCCK biotin peptide (human); test: ELISA, 50 nM mAb
T1 construct: also called sulfotyrosine CCK peptide
T1 peptide: SHRISDRD[sY]MGWMDFGGK(Biotin)
Non-standard residues stand in square brackets, D forms with d. No end group written: not given here. *: point of attachment. Biotin = O=C1N[C@H]2[C@H](CS[C@H]2CCCCC(=O)*)N1; sY = N[C@@H](Cc1ccc(OS(=O)(=O)O)cc1)C(=O)O
Lab note: jot the number down without any unit.

BINDER	binding normalized to PSGL-1
02E01 (antibody, IgG4, V domains shown) VH: EVQLVQSGGGVVQPGRSLRLSCAASGFTFSRYGMHWVRQAPGKGLEWVSVISYDGNNKYYADSVKGRFTISRDNSKNTVYLQMNSLRADDTAVYYCARNVPVTNFGYWGQGTLVTVSS VL: QSALTQPASVSGSPGQSITISCTGTSSDVGGYNYVSWYQQHPGKAPKLMIYDVSKRPSGVSNRFSGSKSGNTASLTISGLQAEDEADYYCSSYTRPGRVFGGGTKLTVL	0.5

Turning now to a further binder:
Task: Need binding normalized to PSGL-1 of 06A07 (antibody, IgG4, V domains shown) VH: QVQLVQSGPELKNPGASVKVSCKASGYSFTNFYINWVRQAPGRGLEWVGWISPNNGNTHYARNLQGRVTMTTDTSTNTAYLELKNLRSDDTAIYFCGRSVSMGYWGQGTLVTVSS VL: LPVLTQPPSVSKGLRQTATLTCTGNSKNVGNQGAAWLQQHQGQPPKLLSYRNNNRPSGISERFSASRSGNTASLTITGLQPEDEADYYCSAWDSSLSAQVFGGGTKLTVL , thanks.
Result: 0.65

Origin of the recorded values: patent US20220396632A1
